// reported melting point for each item listed

{"compound": "CC1(C)Cc2cccc(OCCCBr)c2O1", "readout name": "melting point", "result": "54 to 56 °C"}

Input: Any idea what its melting point is? The compound is Cc1ccccc1S(=O)(=O)NC(=O)CCc1cc(OC(C)C)nn1Cc1ccc(Cl)cc1Cl
Output: 165 to 166 °C

Input: Form field: reported melting point of O=C(Oc1ccccc1)Oc1c2c(nc3ccccc13)CCN(C(=O)Oc1ccccc1)CC2
Output: 232 °C

Input: Fill blank: measured melting point of the compound Cc1cc2c(cc1Sc1ccc(C(=O)Nc3ccc(O)cc3)cc1)C(C)(C)CCC2(C)C is ____.
Output: 236 to 237 °C
